// data source = ChEMBL document CHEMBL3244325

# assay.summary: Toxicity in sc dosed mouse
# Assay type: organism-based
# measurement.context: in vivo
quantity.measured: LD50 (mg/kg)
Numbers only, in mg/kg.

Field: example entries. Status: answers known.
C=CCN1CC[C@]23c4c5ccc(O)c4O[C@H]2C(=O)CC[C@@]3(O)[C@H]1C5.Cl [NALOXONE HYDROCHLORIDE] :: 286
CC(C)=CCN1CCC2(C)c3cc(O)ccc3CC1C2C.Cl (stereo not given) [PENTAZOCINE HYDROCHLORIDE] :: 220
Cl.O=C1CC[C@@]2(O)[C@H]3Cc4ccc(O)c5c4[C@@]2(CCN3C[C@@H]2CCCO2)[C@H]1O5 :: 810

Please look at the items below and tell me LD50 for each one, in order.
1. Cl.O=C1CC[C@@]2(O)[C@H]3Cc4ccc(O)c5c4[C@@]2(CCN3C[C@H]2CCCO2)[C@H]1O5
2. C=CCN1CC[C@]23c4c5ccc(O)c4O[C@H]2[C@@H](O)C=C[C@H]3[C@H]1C5.Cl [NALORPHINE HYDROCHLORIDE]

[955, 560]
